# EXPERIMENTAL_CONDITIONS: in 2-butanone, 303.15 K
READOUT_NAME: solubility (mole fraction)
The response must contain the number and no unit.

Query: Return reported solubility (mole fraction); argument: Cc1c(OCC(F)(F)F)ccnc1CS(=O)c1nc2ccccc2[nH]1 (stereo unspecified)
Response: 0.00578

###

# EXPERIMENTAL_CONDITIONS: in MIBK, 283.15 K
READOUT_NAME: solubility (mole fraction)

Query: Return reported solubility (mole fraction); argument: Cc1c(OCC(F)(F)F)ccnc1CS(=O)c1nc2ccccc2[nH]1 (stereo unspecified)
Response: 0.0013

###

# EXPERIMENTAL_CONDITIONS: in isobutyl acetate, 308.15 K
READOUT_NAME: solubility (mole fraction)
The response must contain the number and no unit.

Query: Return reported solubility (mole fraction); argument: Cc1c(OCC(F)(F)F)ccnc1CS(=O)c1nc2ccccc2[nH]1 (stereo unspecified)
Response: 0.00193

###

# EXPERIMENTAL_CONDITIONS: in n-butyl acetate, 293.15 K
READOUT_NAME: solubility (mole fraction)
The response must contain the number and no unit.

Query: Return reported solubility (mole fraction); argument: Cc1c(OCC(F)(F)F)ccnc1CS(=O)c1nc2ccccc2[nH]1 (stereo unspecified)
Response: 0.00144

###

# EXPERIMENTAL_CONDITIONS: in MIBK, 288.15 K
READOUT_NAME: solubility (mole fraction)

Query: Return reported solubility (mole fraction); argument: Cc1c(OCC(F)(F)F)ccnc1CS(=O)c1nc2ccccc2[nH]1 (stereo unspecified)
Response: 0.00154

###

# EXPERIMENTAL_CONDITIONS: in MIBK, 303.15 K
READOUT_NAME: solubility (mole fraction)
The response must contain the number and no unit.

Query: Return reported solubility (mole fraction); argument: Cc1c(OCC(F)(F)F)ccnc1CS(=O)c1nc2ccccc2[nH]1 (stereo unspecified)
Response: 0.00255

###

# EXPERIMENTAL_CONDITIONS: in acetone, 283.15 K
READOUT_NAME: solubility (mole fraction)
The response must contain the number and no unit.

Query: Return reported solubility (mole fraction); argument: Cc1c(OCC(F)(F)F)ccnc1CS(=O)c1nc2ccccc2[nH]1 (stereo unspecified)
Response: 0.00249

###

# EXPERIMENTAL_CONDITIONS: in ethyl acetate, 298.15 K
READOUT_NAME: solubility (mole fraction)
The response must contain the number and no unit.

Query: Return reported solubility (mole fraction); argument: Cc1c(OCC(F)(F)F)ccnc1CS(=O)c1nc2ccccc2[nH]1 (stereo unspecified)
Response: 0.00245

###

# EXPERIMENTAL_CONDITIONS: in isopropanol, 313.15 K
READOUT_NAME: solubility (mole fraction)
The response must contain the number and no unit.

Query: Return reported solubility (mole fraction); argument: Cc1c(OCC(F)(F)F)ccnc1CS(=O)c1nc2ccccc2[nH]1 (stereo unspecified)
Response: 0.00333

###

# EXPERIMENTAL_CONDITIONS: in n-butyl acetate, 313.15 K
READOUT_NAME: solubility (mole fraction)
The response must contain the number and no unit.

Query: Return reported solubility (mole fraction); argument: Cc1c(OCC(F)(F)F)ccnc1CS(=O)c1nc2ccccc2[nH]1 (stereo unspecified)
Response: 0.00271

###

# EXPERIMENTAL_CONDITIONS: in 2-butanone, 283.15 K
READOUT_NAME: solubility (mole fraction)
The response must contain the number and no unit.

Query: Return reported solubility (mole fraction); argument: Cc1c(OCC(F)(F)F)ccnc1CS(=O)c1nc2ccccc2[nH]1 (stereo unspecified)
Response: 0.00289

###

# EXPERIMENTAL_CONDITIONS: in n-butanol, 298.15 K
READOUT_NAME: solubility (mole fraction)
The response must contain the number and no unit.

Query: Return reported solubility (mole fraction); argument: Cc1c(OCC(F)(F)F)ccnc1CS(=O)c1nc2ccccc2[nH]1 (stereo unspecified)
Response: 0.0027

###

# EXPERIMENTAL_CONDITIONS: in MIBK, 298.15 K
READOUT_NAME: solubility (mole fraction)
The response must contain the number and no unit.

Query: Return reported solubility (mole fraction); argument: Cc1c(OCC(F)(F)F)ccnc1CS(=O)c1nc2ccccc2[nH]1 (stereo unspecified)
Response: 0.00216

###

# EXPERIMENTAL_CONDITIONS: in ethyl acetate, 293.15 K
READOUT_NAME: solubility (mole fraction)
The response must contain the number and no unit.

Query: Return reported solubility (mole fraction); argument: Cc1c(OCC(F)(F)F)ccnc1CS(=O)c1nc2ccccc2[nH]1 (stereo unspecified)
Response: 0.002

###

# EXPERIMENTAL_CONDITIONS: in ethyl acetate, 303.15 K
READOUT_NAME: solubility (mole fraction)
The response must contain the number and no unit.

Query: Return reported solubility (mole fraction); argument: Cc1c(OCC(F)(F)F)ccnc1CS(=O)c1nc2ccccc2[nH]1 (stereo unspecified)
Response: 0.00291

###

# EXPERIMENTAL_CONDITIONS: in n-pentanol, 298.15 K
READOUT_NAME: solubility (mole fraction)
The response must contain the number and no unit.

Query: Return reported solubility (mole fraction); argument: Cc1c(OCC(F)(F)F)ccnc1CS(=O)c1nc2ccccc2[nH]1 (stereo unspecified)
Response: 0.00281

###

# EXPERIMENTAL_CONDITIONS: in isobutyl acetate, 293.15 K
READOUT_NAME: solubility (mole fraction)
The response must contain the number and no unit.

Query: Return reported solubility (mole fraction); argument: Cc1c(OCC(F)(F)F)ccnc1CS(=O)c1nc2ccccc2[nH]1 (stereo unspecified)
Response: 0.00117

###

# EXPERIMENTAL_CONDITIONS: in 2-butanone, 308.15 K
READOUT_NAME: solubility (mole fraction)
The response must contain the number and no unit.

Query: Return reported solubility (mole fraction); argument: Cc1c(OCC(F)(F)F)ccnc1CS(=O)c1nc2ccccc2[nH]1 (stereo unspecified)
Response: 0.00697

###

# EXPERIMENTAL_CONDITIONS: in isopropanol, 288.15 K
READOUT_NAME: solubility (mole fraction)
The response must contain the number and no unit.

Query: Return reported solubility (mole fraction); argument: Cc1c(OCC(F)(F)F)ccnc1CS(=O)c1nc2ccccc2[nH]1 (stereo unspecified)
Response: 0.000922

###

# EXPERIMENTAL_CONDITIONS: in isopropanol, 293.15 K
READOUT_NAME: solubility (mole fraction)
The response must contain the number and no unit.

Query: Return reported solubility (mole fraction); argument: Cc1c(OCC(F)(F)F)ccnc1CS(=O)c1nc2ccccc2[nH]1 (stereo unspecified)
Response: 0.00124

###

# EXPERIMENTAL_CONDITIONS: in 2-butanone, 293.15 K
READOUT_NAME: solubility (mole fraction)

Query: Return reported solubility (mole fraction); argument: Cc1c(OCC(F)(F)F)ccnc1CS(=O)c1nc2ccccc2[nH]1 (stereo unspecified)
Response: 0.00412

###

# EXPERIMENTAL_CONDITIONS: in 2-butanone, 313.15 K
READOUT_NAME: solubility (mole fraction)
The response must contain the number and no unit.

Query: Return reported solubility (mole fraction); argument: Cc1c(OCC(F)(F)F)ccnc1CS(=O)c1nc2ccccc2[nH]1 (stereo unspecified)
Response: 0.0083

###

# EXPERIMENTAL_CONDITIONS: in n-propanol, 303.15 K
READOUT_NAME: solubility (mole fraction)
The response must contain the number and no unit.

Query: Return reported solubility (mole fraction); argument: Cc1c(OCC(F)(F)F)ccnc1CS(=O)c1nc2ccccc2[nH]1 (stereo unspecified)
Response: 0.00388

###

# EXPERIMENTAL_CONDITIONS: in n-propanol, 293.15 K
READOUT_NAME: solubility (mole fraction)
The response must contain the number and no unit.

Query: Return reported solubility (mole fraction); argument: Cc1c(OCC(F)(F)F)ccnc1CS(=O)c1nc2ccccc2[nH]1 (stereo unspecified)
Response: 0.0026

###

# EXPERIMENTAL_CONDITIONS: in ethyl acetate, 313.15 K
READOUT_NAME: solubility (mole fraction)
The response must contain the number and no unit.

Query: Return reported solubility (mole fraction); argument: Cc1c(OCC(F)(F)F)ccnc1CS(=O)c1nc2ccccc2[nH]1 (stereo unspecified)
Response: 0.00416

###

# EXPERIMENTAL_CONDITIONS: in isopropanol, 303.15 K
READOUT_NAME: solubility (mole fraction)

Query: Return reported solubility (mole fraction); argument: Cc1c(OCC(F)(F)F)ccnc1CS(=O)c1nc2ccccc2[nH]1 (stereo unspecified)
Response: 0.00202

###

# EXPERIMENTAL_CONDITIONS: in n-propanol, 298.15 K
READOUT_NAME: solubility (mole fraction)

Query: Return reported solubility (mole fraction); argument: Cc1c(OCC(F)(F)F)ccnc1CS(=O)c1nc2ccccc2[nH]1 (stereo unspecified)
Response: 0.00314
